Tested on: U2OS
MEASUREMENT_PROTOCOL: cell viability relative to DMSO; higher = less toxic
RUN_CONDITIONS: 72 h; 1000 nM
ASSAY_METRIC: cell viability (%)
Reply numerically in %, unit not repeated.

Recorded results for 10 compounds are shown here.
[
  {
    "COMPOUND": "CS(=O)(=O)c1cc(F)cc2c3c(n(Cc4ccc(Cl)cc4)c12)[C@@H](CC(=O)O)CC3",
    "ASSAYED_SYSTEM": "U2OS",
    "ASSAY_METRIC": "cell viability",
    "NUMERIC_RESULT": 106
  },
  {
    "COMPOUND": "FC(F)c1nc2ccccc2n1-c1nc(N2CCOCC2)nc(N2CCOCC2)n1",
    "ASSAYED_SYSTEM": "U2OS",
    "ASSAY_METRIC": "cell viability",
    "NUMERIC_RESULT": 95.6
  },
  {
    "COMPOUND": "Cc1coc2c1C(=O)C(=O)c1c-2ccc2c1CCCC2(C)C",
    "ASSAYED_SYSTEM": "U2OS",
    "ASSAY_METRIC": "cell viability",
    "NUMERIC_RESULT": 99.6
  },
  {
    "COMPOUND": "O[C@H]([C@H](O)[C@@H]1CO1)[C@H]1CO1 [dianhydrogalactitol]",
    "ASSAYED_SYSTEM": "U2OS",
    "ASSAY_METRIC": "cell viability",
    "NUMERIC_RESULT": 100
  },
  {
    "COMPOUND": "CC(C)N(CCCNC(=O)Nc1ccc(C(C)(C)C)cc1)C[C@H]1O[C@@H](n2ccc3c(N)ncnc32)[C@H](O)[C@@H]1O",
    "ASSAYED_SYSTEM": "U2OS",
    "ASSAY_METRIC": "cell viability",
    "NUMERIC_RESULT": 102
  },
  {
    "COMPOUND": "CN1CCN(C(c2ccccc2)c2ccccc2)CC1",
    "ASSAYED_SYSTEM": "U2OS",
    "ASSAY_METRIC": "cell viability",
    "NUMERIC_RESULT": 95.6
  },
  {
    "COMPOUND": "COc1ccccc1N1CCN(CC(O)COc2cc(OC)c(OC)c(OC)c2)CC1 (stereo not drawn)",
    "ASSAYED_SYSTEM": "U2OS",
    "ASSAY_METRIC": "cell viability",
    "NUMERIC_RESULT": 96
  },
  {
    "COMPOUND": "CCn1c(-c2nonc2N)nc2cncc(C(=O)N3CC[C@H](N)C3)c21",
    "ASSAYED_SYSTEM": "U2OS",
    "ASSAY_METRIC": "cell viability",
    "NUMERIC_RESULT": 88.2
  },
  {
    "COMPOUND": "Cn1cc(-c2ccc3nnc(Sc4ccc5ncccc5c4)n3n2)cn1",
    "ASSAYED_SYSTEM": "U2OS",
    "ASSAY_METRIC": "cell viability",
    "NUMERIC_RESULT": 93.4
  },
  {
    "COMPOUND": "CCC(=O)[C@@]1(C)[C@H](C)C[C@H]2[C@@H]3CCC4=CC(=O)C=C[C@]4(C)[C@H]3[C@@H](O)C[C@@]21C [rimexolone]",
    "ASSAYED_SYSTEM": "U2OS",
    "ASSAY_METRIC": "cell viability",
    "NUMERIC_RESULT": 95.5
  }
]

Task item: Annotate the compound `CN(C)[C@@H]1C(O)=C(C(N)=O)C(=O)[C@@]2(O)C(O)=C3C(=O)c4c(O)cccc4[C@@](C)(O)[C@H]3C[C@@H]12` with its measured cell viability.
Reply: 95

Task item: Return cell viability (reported value) for this compound: CN/C(=N\S(=O)(=O)c1ccc(Cl)cc1)N1C[C@H](c2ccccc2)C(c2ccc(Cl)cc2)=N1 (racemic) [SLV-319-(+/-)]
Reply: 98.9

Task item: Provide cell viability value for the following compound: `CNC(=O)c1cnn(-c2nc(N)c3ncn([C@@H]4O[C@H](CO)[C@@H](O)[C@H]4O)c3n2)c1`
Reply: 99

Task item: Supply cell viability value. Item: `COc1nccc(-c2c(-c3ccc(F)cc3)ncn2[C@H]2CC[C@H](O)CC2)n1`
Reply: 98.7

Task item: # return recorded cell viability for entry `FC(F)(F)c1cccc(-c2noc(-c3cc(-c4ccccc4)c(C(F)(F)F)s3)n2)c1`
Reply: 102

Task item: Please give measured cell viability of the following entry: `Cc1c(-c2ccccc2F)[nH]c(N)c1C#N`
Reply: 93.9

Task item: Item `FC(F)(F)c1cccc(C2=CCN(CCc3ccc4ccccc4c3)CC2)c1` : provide cell viability
Reply: 105

Task item: Report cell viability for `Cn1cnc2c1c(=O)[nH]c(=O)n2C`
Reply: 97.6

Task item: Specify measured cell viability for `C[C@H](Nc1cc(-c2cnn(C)c2)cc(Nc2cnccn2)n1)c1ccc(F)cc1` .
Reply: 87.6

Task item: Identify the reported cell viability for the following entry. `CNC(=O)c1cc(Oc2ccc(NC(=O)Nc3cc(C(C)(C)C)nn3-c3ccc4ncccc4c3)c(F)c2)ccn1`
Reply: 108

Task item: State, in one line, measured cell viability of CC[C@H](CO)Nc1nc(NCc2ccc(-c3ccccn3)cc2)c2ncn(C(C)C)c2n1 [CR8-(R)]
Reply: 0.2

Task item: Could you please provide reported cell viability for CC(=O)O[C@]1(C(C)=O)CC[C@H]2[C@@H]3C=C(C)C4=CC(=O)CC[C@@H]4[C@H]3CC[C@@]21C [nomegestrol-acetate] ? Thanks!
Reply: 103

Task item: Complete the entry with cell viability for `CN(C)c1cccc(Oc2cnc(Nc3cccc(O)c3)nc2)c1`
Reply: 99.5

Task item: Complete the entry with cell viability for `O=C(CCCN1CCC2(CC1)C(=O)N(Cc1cccc(F)c1)CN2c1ccccc1)c1ccc(F)cc1`
Reply: 99.8

Task item: For the compound `COc1ccc(S(=O)(=O)N2c3ccc(Cl)cc3[C@](O)(c3ccccc3Cl)[C@@H]2C(=O)N2CCC[C@H]2C(N)=O)cc1OC` , give its reported cell viability.
Reply: 105

Task item: Supply reported cell viability belonging to this compound: N#CCC(=O)NN [cyacetacide]
Reply: 94

Task item: Determine from records and report cell viability for `O=C(COP(=O)(O)O)[C@@H](O)[C@H](O)[C@H](O)COP(=O)(O)O`
Reply: 105

Task item: Give recorded cell viability. `Nc1cc(F)ccc1NC(=O)/C=C/c1cnn(C/C=C/c2ccccc2)c1`
Reply: 89.5

====

Tested on: Caco-2
MEASUREMENT_PROTOCOL: cell viability relative to DMSO; higher = less toxic
RUN_CONDITIONS: 72 h; 10 nM
# reported cell viability; entries follow
The response must be a number in % with no trailing unit.

Consider the worked cases shown below.
[
  {
    "COMPOUND": "CC1=C(/C=C/C(C)=C/C=C/C(C)=C/C(=O)O)C(C)(C)CCC1 [tretinoin]",
    "NUMERIC_RESULT": 102
  },
  {
    "COMPOUND": "CNC(=O)c1cc(Oc2ccc(NC(=O)Nc3ccc(Cl)c(C(F)(F)F)c3)c(F)c2)ccn1 [regorafenib]",
    "NUMERIC_RESULT": 105
  },
  {
    "COMPOUND": "Cc1cccc(-c2[nH]c(CNc3ccccc3F)nc2-c2ccc3ncnn3c2)n1 [EW-7197]",
    "NUMERIC_RESULT": 96.4
  }
]

Okay, now this compound:
Task item: Report cell viability, nothing else, for this compound: C[C@@H](C(=O)O)c1ccc(-c2ccccc2)c(F)c1 (racemic) [flurbiprofen-(+/-)]
Reply: 95.2

====

System: Caco-2
MEASUREMENT_PROTOCOL: drug sensitivity score (DSS) for viability; higher = more toxic; extreme values may be limits of the assay
RUN_CONDITIONS: 72 h
Listed here: items and their measured drug sensitivity score.
// keep it numeric: no unit symbol after the value

[
  {
    "COMPOUND": "Cc1c(-c2cnccn2)ssc1=S",
    "drug sensitivity score": 0
  }
]

Task item: Answer with the recorded drug sensitivity score for the compound listed here: `COc1cc(S(C)(=O)=O)ccc1Nc1nc2ccc(-c3ccc(NC(=O)[C@H](C)c4ccc(F)cc4)cc3)cn2n1`
Reply: 2.9

Task item: Give me measured drug sensitivity score, please, for this compound: `COc1cc(OC)c(C(=O)CCCCN2CCC3(CC2)NC(=O)NC3=O)cc1NS(=O)(=O)c1ccc(C(F)(F)F)cc1`
Reply: 0

Task item: Supply recorded drug sensitivity score for CC(=O)[C@H]1CC[C@H]2[C@@H]3CC=C4C[C@@H](OC(=O)CCC(=O)O)CC[C@]4(C)[C@H]3CC[C@]12C [pregnenolone-succinate] here.
Reply: 0.3

Task item: Recall and state the measured drug sensitivity score for `N[C@H](C(=O)O)c1ccc(O)cc1` .
Reply: 0

Task item: Identify measured drug sensitivity score corresponding to `Cn1cc(CCn2cnc(-c3cnn(C)c3)c2-c2ccc(C#N)cc2)cn1`
Reply: 0
